Measured values drawn from paper PMC9482650 for this set.

- MEASURED TARGET: Inadl_1, Q8NI35
- Sequence (Q8NI35 113-229): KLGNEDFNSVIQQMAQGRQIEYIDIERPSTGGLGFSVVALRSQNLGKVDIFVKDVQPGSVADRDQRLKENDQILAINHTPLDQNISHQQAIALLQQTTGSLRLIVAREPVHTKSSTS
- METHOD NOTES: holdup assay
- Set-up: key: below the threshold = too weak to quantify, mostly under pKd 3.1 to 4
- TEST PARAMETERS: plain residues with an end cap or a label only (N-terminal biotin on a linker: ado-ado)

BINDER: SAAKVLTSMC [GHRHR, Q02643]
pKd: below the threshold
--
BINDER: PRAEAEDSFL [PDGFRB, P09619]
pKd: below the threshold
--
BINDER: VDSTVKVWTC [TRAF7, Q6Q0C0]
pKd: 3.67
--
BINDER: LGRSTPQSEV [DGKH, Q86XP1]
pKd: below the threshold
